Target: Endoribonuclease Dicer (Homo sapiens)
Test: Dicer cleavage of pre-miR-21 blockers – biochemical, cat-ELCCA, chemiluminescence, primary screen (AID 1347074);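 also: plate controls were vehicle for no effect and no enzyme for full effect; higher signal means more uncleaved substrate so more Dicer inhibition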
Conditions: cat-ELCCA pre-miR-21 Dicer processing, at 25 µM
About 2,800 (6%) of roughly 47,000 compounds were called active. Rule as the data show it: active = z-score above about 3 (passing the limit was not always enough); inactive = the rest. This is one part of a sample in which actives are shown more often than they occur.
Please state which outcome applies, choosing from active, inactive

[[record]]
compound = "COC(=O)C(C)N(C#N)c1nc(N(C)C)nc(N(C)C)n1 (stereo unspecified)"
assayedtarget = "Endoribonuclease Dicer (Homo sapiens)"
assignedlabel = "active"


Continue with the next compound.
Input: Identify the outcome logged in this assay for the compound shown: CC(C)NC(=O)NNc1cc(N(C)C)c(C#N)c(N(C)C)n1
Output: inactive

---

Target: Endoribonuclease Dicer (Homo sapiens) (UniProt Q9UPY3)
Sequence (Q9UPY3 whole entry, looked up): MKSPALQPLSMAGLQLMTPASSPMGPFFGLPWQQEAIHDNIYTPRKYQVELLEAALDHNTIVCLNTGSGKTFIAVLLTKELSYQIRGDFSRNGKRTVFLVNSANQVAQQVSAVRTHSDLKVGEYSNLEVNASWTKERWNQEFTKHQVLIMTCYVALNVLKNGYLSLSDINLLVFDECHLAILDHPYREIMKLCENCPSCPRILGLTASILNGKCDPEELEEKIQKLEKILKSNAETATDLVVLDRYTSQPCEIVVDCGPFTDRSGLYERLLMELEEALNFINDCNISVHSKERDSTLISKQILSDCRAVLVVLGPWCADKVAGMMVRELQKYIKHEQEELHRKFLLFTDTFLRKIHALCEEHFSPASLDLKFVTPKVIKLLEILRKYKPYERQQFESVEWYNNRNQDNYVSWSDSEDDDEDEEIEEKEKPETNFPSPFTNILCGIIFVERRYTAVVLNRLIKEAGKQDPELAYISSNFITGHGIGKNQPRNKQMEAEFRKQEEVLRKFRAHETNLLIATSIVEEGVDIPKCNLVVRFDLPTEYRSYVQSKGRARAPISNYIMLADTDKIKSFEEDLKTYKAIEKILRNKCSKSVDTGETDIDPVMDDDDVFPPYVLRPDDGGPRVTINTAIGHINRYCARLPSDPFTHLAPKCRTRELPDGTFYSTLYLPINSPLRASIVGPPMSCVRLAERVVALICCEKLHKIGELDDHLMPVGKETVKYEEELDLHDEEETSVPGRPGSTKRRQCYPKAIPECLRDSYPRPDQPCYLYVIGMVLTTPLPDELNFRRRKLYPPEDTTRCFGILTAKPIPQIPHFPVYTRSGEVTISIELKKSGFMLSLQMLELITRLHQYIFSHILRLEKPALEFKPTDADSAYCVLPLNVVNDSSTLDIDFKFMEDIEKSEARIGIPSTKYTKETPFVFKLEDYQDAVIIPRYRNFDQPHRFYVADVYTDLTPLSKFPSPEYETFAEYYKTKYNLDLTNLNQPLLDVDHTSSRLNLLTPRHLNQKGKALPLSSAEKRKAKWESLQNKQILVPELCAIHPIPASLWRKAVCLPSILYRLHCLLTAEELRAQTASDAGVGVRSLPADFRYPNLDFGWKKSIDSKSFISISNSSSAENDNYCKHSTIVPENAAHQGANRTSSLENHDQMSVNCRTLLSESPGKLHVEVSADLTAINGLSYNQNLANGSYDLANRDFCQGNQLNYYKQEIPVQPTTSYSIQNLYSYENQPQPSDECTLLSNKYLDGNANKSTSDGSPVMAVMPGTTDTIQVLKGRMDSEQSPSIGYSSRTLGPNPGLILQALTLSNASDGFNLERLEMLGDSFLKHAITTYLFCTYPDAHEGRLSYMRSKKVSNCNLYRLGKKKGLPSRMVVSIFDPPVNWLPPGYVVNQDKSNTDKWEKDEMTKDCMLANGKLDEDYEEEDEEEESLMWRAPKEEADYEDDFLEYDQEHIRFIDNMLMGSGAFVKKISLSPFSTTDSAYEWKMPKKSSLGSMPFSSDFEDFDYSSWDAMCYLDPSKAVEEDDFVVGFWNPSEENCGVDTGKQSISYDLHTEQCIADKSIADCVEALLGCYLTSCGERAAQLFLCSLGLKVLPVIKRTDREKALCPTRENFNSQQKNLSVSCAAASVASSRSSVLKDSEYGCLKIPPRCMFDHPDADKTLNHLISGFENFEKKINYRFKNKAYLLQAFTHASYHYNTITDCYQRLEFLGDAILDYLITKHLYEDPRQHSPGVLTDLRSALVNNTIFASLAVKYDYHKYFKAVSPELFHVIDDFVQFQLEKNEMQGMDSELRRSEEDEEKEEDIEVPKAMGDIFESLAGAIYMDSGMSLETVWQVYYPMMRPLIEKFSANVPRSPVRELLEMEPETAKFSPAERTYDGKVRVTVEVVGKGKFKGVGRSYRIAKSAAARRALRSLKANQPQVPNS
Experiment: Dicer cleavage of pre-miR-21 blockers – biochemical, cat-ELCCA, chemiluminescence, primary screen (AID 1347074);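 also: plate controls were vehicle for no effect and no enzyme for full effect; higher signal means more uncleaved substrate so more Dicer inhibition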
Settings: cat-ELCCA pre-miR-21 Dicer processing, at 25 µM, active compounds read high
The whole screen tested about 47,000 compounds, of which about 2,800 (6%) were called active. Many of the other results were omitted from the sample, so actives are more common in it than they were.
Answer each item with its documented z-score.
Numbers only.

Previously resolved entries follow.
[[record]]
molecule = "Cc1ccc(C2CC(c3cccc(C)c3)n3nc(N)nc3N2)cc1 (stereo unspecified)"
testvalue = 0.14

[[record]]
molecule = "CNC(=O)CSc1nc2ccccc2[nH]1"
testvalue = 1.43

[[record]]
molecule = "O=C1NNC(c2ccccc2)=N/C1=C\\c1ccc(Cl)cc1"
testvalue = -3.16

[[record]]
molecule = "Cn1c(Oc2ccccc2Br)nc2c1c(=O)n(Cc1ccccc1)c(=O)n2C"
testvalue = 5.58

[[record]]
molecule = "CC(C)(C)OC(=O)NCC(=O)OCc1ccc(CC(=O)O)cc1"
testvalue = 3.04


Proceeding to the next molecule to report its z-score.
Input: Form: Entry = CC1=N/C(=C/c2ccccc2Cl)C(=O)O1 | System = Endoribonuclease Dicer (Homo sapiens) (UniProt Q9UPY3) | z-score = ____
Output: 3.5

---

Answer each item with its documented z-score.
Target: Endoribonuclease Dicer (Homo sapiens) (UniProt Q9UPY3)
Experiment: Dicer cleavage of pre-miR-21 blockers – biochemical, cat-ELCCA, chemiluminescence, primary screen (AID 1347074);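 also: plate controls were vehicle for no effect and no enzyme for full effect; higher signal means more uncleaved substrate so more Dicer inhibition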
Settings: cat-ELCCA pre-miR-21 Dicer processing, at 25 µM, active compounds read high
Hit rate of the full screen: of about 47,000 compounds, about 2,800 (6%) were called active. The entries come from a sample that favours actives as a whole.
Answers are plain numbers.

[[record]]
compound = "CCC(C)c1ccccc1OCC(O)CN1C(=O)NC(C)(C)C1=O (stereo unspecified)"
testvalue = 0.96


// for each compound in input: emit z-score
1. COc1ccc(/C=C/c2noc(-c3ccccc3O)n2)cc1OC
2. O=S(=O)(c1ccc(C2Nc3ccc(Cl)cc3C3C=CCC32)cc1)N1CCOCC1 (stereo unspecified)
3. CC(C)NC(=S)N/N=C/c1ccn[nH]1
4. CCCCN1C(=O)C2(/C(=C(/O)c3ccc(F)cc3)C(=O)C(=O)N2CCCOC)c2ccccc21 (stereo unspecified)
5. CSc1nnc(/N=C/c2ccccc2O)s1

Output:
1. 0.89
2. -0.43
3. 3.01
4. 2.27
5. 0.16

---

Molecular target: Endoribonuclease Dicer (Homo sapiens)
Assay: Dicer cleavage of pre-miR-21 blockers – biochemical, cat-ELCCA, chemiluminescence, primary screen (AID 1347074);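 also: plate controls were vehicle for no effect and no enzyme for full effect; higher signal means more uncleaved substrate so more Dicer inhibition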
Settings: cat-ELCCA pre-miR-21 Dicer processing, at 25 µM
In all, about 47,000 compounds went through this assay and about 2,800 (6%) were called active. No stated cut-off is given here; in the data, active means z-score above about 3 (passing the limit was not always enough); inactive means the rest. The list comes from a sample in which actives are over-represented; it also holds close analogues and randomly drawn compounds.
Please state which outcome applies, choosing from yes = active, no = inactive

[[record]]
compound = "COc1cc(C)c(Cl)cc1S(=O)(=O)n1ccnc1"
assignedlabel = "no"

[[record]]
compound = "O=c1ccn(C2CCCO2)c(=O)n1Cc1ccccc1F (stereo unspecified)"
assignedlabel = "no"

[[record]]
compound = "FC(F)(F)c1cc(Cl)c2ncc(-c3ccc(Cl)c(Cl)c3)nc2c1"
assignedlabel = "no"

[[record]]
compound = "O=C(Nc1ccc2oc(-c3ccncc3)nc2c1)c1sc2ccccc2c1Cl"
assignedlabel = "no"

[[record]]
compound = "O=C1C2=C(Nc3ccccc3S(=O)(=O)C2c2ccc(Cl)cc2)c2ccccc21 (stereo unspecified)"
assignedlabel = "yes"

[[record]]
compound = "Cc1ccc(S(=O)(=O)Nc2ccc(F)cc2NS(=O)(=O)c2ccc(C)cc2)cc1"
assignedlabel = "yes"

[[record]]
compound = "Cc1nn(Cc2ccc(C(=O)NCc3ccccn3)o2)c(C)c1[N+](=O)[O-]"
assignedlabel = "no"

[[record]]
compound = "Cc1oc2ccc(NS(=O)(=O)c3ccc4c5c(cccc35)C(=O)N4)cc2c1C(=O)OC(C)C"
assignedlabel = "no"

[[record]]
compound = "COC(=O)C(C(=O)OC)=C(SC)SC"
assignedlabel = "no"

[[record]]
compound = "O=C(Nc1cccc(F)c1)c1sc2ccccc2c1Cl"
assignedlabel = "yes"


Input: Identify the outcome logged in this assay for the compound shown: CC1=CC(C)(C)N(S(=O)(=O)c2ccc(C)cc2)c2cc3c(cc21)OCO3
Output: yes

Input: Identify the outcome logged in this assay for the compound shown: CN(C)c1ccc(NC(=O)C(=O)NCCO)cc1
Output: yes
